Source listed as ChEMBL document CHEMBL3853316.

- assay-protocol: Half life in rat liver microsomes
- Assay type: ADME
metric-name: half-life (min)

{"compound-structure": "Cc1cc2ccc1[C@@H](C)COC(=O)Nc1ccc(S(=O)(=O)C3CC3)c(c1)CN(C)C(=O)[C@@H]2Nc1ccc2c(N)ncc(F)c2c1", "half-life [min]": 1.9}

[A] Cc1cc2ccc1[C@@H](C)COC(=O)Nc1ccc(S(=O)(=O)C3CC3)c(c1)CN(C)C(=O)[C@@H]2Nc1ccc2c(N)nccc2c1
[B] Cc1cc2ccc1[C@@H](C)COC(=O)Nc1ccc(S(=O)(=O)C3CC3)c(c1)CN(C)C(=O)[C@@H]2Nc1cc(F)c2c(N)nccc2c1
[C] Cc1cc2ccc1[C@@H](C)COC(=O)Nc1ccc(OC(F)(F)F)c(c1)CN(C)C(=O)[C@@H]2Nc1ccc2c(N)nccc2c1
Lookup: Please list these in order of increasing half-life. Thank you! Form entry: labels listed in requested order.
Found: B, A, C

###

- assay-protocol: Clearance in dog at 0.2 mg/kg, iv and 1 mg/kg, po
- Assay type: ADME, organism-based, Canis lupus familiaris
- protocol-conditions: in vivo
metric-name: clearance (mL/min/kg)

{"compound-structure": "Cc1cc2ccc1[C@@H](C)COC(=O)Nc1ccc(S(=O)(=O)C3CC3)c(c1)CN(C)C(=O)[C@@H]2Nc1cc2ccnc(N)c2cc1F", "meas-value": 11}

[1] Cc1cc2ccc1[C@@H](C)COC(=O)Nc1ccc(S(=O)(=O)C3CC3)c(c1)CN(C)C(=O)[C@@H]2Nc1ccc2c(N)ncc(F)c2c1
[2] Cc1cc2ccc1[C@@H](C)COC(=O)Nc1ccc(S(=O)(=O)C3CC3)c(c1)CN(C)C(=O)[C@@H]2Nc1cc(F)c2c(N)nccc2c1
Lookup: Could you tell me which of these two has the smaller clearance figure? First: 1 Second: 2 Answer format: the label of the selected item.
Found: 1

###

- assay-protocol: Volume of distribution at steady state in dog at 0.2 mg/kg, iv and 1 mg/kg, po
- Format: ADME, organism-based, Canis lupus familiaris
- protocol-conditions: in vivo, read-out: Vdss
metric-name: Vd (L/kg)

{"compound-structure": "Cc1cc2ccc1[C@@H](C)COC(=O)Nc1ccc(S(=O)(=O)C3CC3)c(c1)CN(C)C(=O)[C@@H]2Nc1ccc2c(N)ncc(F)c2c1", "meas-value": 5}

[a] Cc1cc2ccc1[C@@H](C)COC(=O)Nc1ccc(S(=O)(=O)C3CC3)c(c1)CN(C)C(=O)[C@@H]2Nc1cc2ccnc(N)c2cc1F
[b] Cc1cc2ccc1[C@@H](C)COC(=O)Nc1ccc(S(=O)(=O)C3CC3)c(c1)CN(C)C(=O)[C@@H]2Nc1cc(F)c2c(N)nccc2c1
Lookup: Could you tell me which of these two has the smaller Vd figure? First: a Second: b Answer format: the label of the selected item.
Found: a
